Sourced from patent US20250136581A1

Molecular target: human α5β3γ2 receptors (α5-GABAA receptor) (Homo sapiens (Human), UniProt P18507+P31644)
Experiment: 3H-flunitrazepam competition binding, human α5β3γ2 GABAA receptor
Conditions: HEK293 cell membranes, 1 nM 3H-flunitrazepam; read-out: α5-GABAAR Ki
Can you tell me pKi for the items I'm about to list?
One number for each entry, as −log10 of the molar value.

| structure-smiles-string | pKi |
| --- | --- |
| Cc1nnn(-c2ccc(C(F)F)cc2)c1COc1ccc(N2CC(=O)NC(=O)C2)nn1 | 9.02 |
| COc1cnccc1NC(=O)C1CN(c2ccc(OCc3c(C)nnn3-c3ccc(C(F)F)cc3)nn2)C1 | 8.69 |
| Cn1nnc(-c2ccc(C(F)F)cc2)c1COc1ccc(N2CCNC(=O)C2)nn1 | 8.68 |
| Cc1nnn(-c2ccc(C(F)F)cc2)c1COc1ccc(N2CCN(CCCc3ccc(Cl)cc3)C(=O)C2)nn1 | 8.79 |
| Cc1nnn(-c2ccc(C(F)F)cc2)c1COc1ccc(N2CC(=O)N3C[C@@H]4C[C@]3(CO4)C2)nn1 | 8.90 |

Request: Please look up its pKi: Cc1nnn(-c2ccc(C(F)F)cc2)c1COc1ccc(N2CCN(CC#N)C(=O)C2)nn1
Result: 8.71
